test system: glioblastoma brain cancer cell line LN-229; assay: Cytotoxicity assay (CCK8 viability); format: cell-based; conditions: Homo sapiens, cytotoxicity against LN-229, 18 hours incubation, 1% FBS media
Kindly supply the reported EC50 values for the records listed here.
Answers are plain numbers, in nM.

{"columns": ["compound", "metric", "result number"],
 "data": [
  ["CCCCCCC(C)(C)c1cc2c(c(O)n1)[C@H]1C[C@@H](C)CC[C@H]1C(C)(C)O2 [Compound 6c]", "EC50", 1830]
]}

Problem: For CCCCCCC(C)(C)c1cc2c(c(O)n1)[C@@H]1C[C@H](C)CC[C@@H]1C(C)(C)O2 [Compound 6b] , write its EC50.
Solution: 2430

// provenance: patent US8476439B2
